Below, each entry is listed with its recorded IC50.
- Test system: Rat platelets
- Assay overview: Inhibitory effects in vitro on collagen-induced platelet aggregation of rat platelets (Experiment 1)
- Type: cell-based
- Experimental context: rat PRP, 37° C., read-out: IC50 (concentration of test compound required to induce 50% inhibition of collagen-induced platelet aggregation)
- From the text: (Inhibitory effects in vitro on collagen-induced platelet aggregation of rat or human platelets) The bottom layer was further centrifuged to give platelet-poor plasma ("PPP") as the supernatant solution. Platelet counts were adjusted to about 0.8-1×10^6 /mm^3 for rat PRP and about 4×10^5 /mm^3 for human PRP by dilution with PPP.
Where a name gives a salt, the structure may show the parent alone.
Observable: IC50 (µg/mL)

> print(dat)
                                   molecule  readout.units  value.measured
1  CNCCN1C(=O)[C@H](OC(C)=O)[C@H](c2ccc(C)cc2)Sc2cc(C)ccc21 (relative stereo) [hydrochloride]          µg/mL             0.5
2  CNCCN1C(=O)[C@H](O)[C@H](c2ccc(C)cc2)Sc2cc(C)ccc21 (single isomer, unassigned) [hydrochloride hemihydrate]          µg/mL             0.1
